molecular target: Sodium-dependent dopamine transporter (Rattus norvegicus, UniProt P23977); assay: Inhibition of dopamine (DA) uptake into rat brain synaptosomes
Sequence (P23977 whole entry): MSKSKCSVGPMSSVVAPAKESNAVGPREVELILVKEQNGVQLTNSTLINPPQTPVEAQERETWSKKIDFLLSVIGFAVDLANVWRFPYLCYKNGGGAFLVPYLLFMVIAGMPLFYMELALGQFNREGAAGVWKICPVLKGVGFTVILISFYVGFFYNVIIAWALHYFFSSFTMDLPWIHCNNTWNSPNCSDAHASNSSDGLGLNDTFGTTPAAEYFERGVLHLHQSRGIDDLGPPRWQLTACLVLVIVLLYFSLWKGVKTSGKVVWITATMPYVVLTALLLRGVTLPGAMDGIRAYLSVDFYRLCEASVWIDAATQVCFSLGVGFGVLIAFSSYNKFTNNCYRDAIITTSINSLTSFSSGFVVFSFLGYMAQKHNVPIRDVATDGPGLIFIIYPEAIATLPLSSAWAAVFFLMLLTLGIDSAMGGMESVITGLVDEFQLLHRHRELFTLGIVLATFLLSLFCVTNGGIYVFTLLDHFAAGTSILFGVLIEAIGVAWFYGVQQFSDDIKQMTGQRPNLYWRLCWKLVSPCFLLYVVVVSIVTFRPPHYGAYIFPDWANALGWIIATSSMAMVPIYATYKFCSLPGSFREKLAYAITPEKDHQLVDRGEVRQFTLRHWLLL
Quantity kind: Ki (nM)

Field: example entries. Status: answers known.
| Compound | Study system | Quantity kind | Numeric value |
| --- | --- | --- | --- |
| COc1ccc2c(c1)CN(C)CC2c1ccc(Cl)c(Cl)c1 (stereo not drawn) | Sodium-dependent dopamine transporter (Rattus norvegicus, UniProt P23977) | Ki | 14.6 |
| Cl.FC(F)(F)c1cccc([C@H]2CN3CCC[C@H]3c3ccccc32)c1 | Sodium-dependent dopamine transporter (Rattus norvegicus, UniProt P23977) | Ki | 54.3 |
| Br.O=[N+]([O-])c1ccc(C2CN3CCC[C@H]3c3ccccc32)cc1 (stereo partly drawn) | Sodium-dependent dopamine transporter (Rattus norvegicus, UniProt P23977) | Ki | 94.2 |

1: Br.Oc1ccc(C2CN3CCC[C@H]3c3ccccc32)cc1 (stereo partly drawn)
2: Cl.c1ccc([C@H]2CN3CCC[C@H]3c3ccccc32)cc1 (stereo in doubt; 5a)
[in] I need your help: which of the pair 1 , 2 has higher Ki? Reply with the label of the item you choose.
[out] 2

----------
target: Sodium-dependent dopamine transporter (Rattus norvegicus, UniProt P23977); test: Inhibition of dopamine (DA) uptake into rat brain synaptosomes
pKi: −log10 of the molar value.
Quantity kind: pKi

| Compound | pKi |
| --- | --- |
| Br.Oc1ccc(C2CN3CCC[C@H]3c3ccccc32)cc1O (stereo partly drawn) | 8.00 |
| CSc1ccc([C@@H]2CN3CCC[C@H]3c3ccccc32)cc1 | 7.43 |

A: Br.Nc1ccc([C@@H]2CN3CCC[C@H]3c3ccccc32)cc1
B: Cl.c1ccc([C@H]2CN3CCC[C@H]3c3ccccc32)cc1 (stereo in doubt; (-)-5b)
[in] Smaller pKi value? Options are A and B Reply with the label of the item you choose.
[out] B

I: Br.COc1ccc(C2CN3CCC[C@H]3c3ccccc32)cc1 (stereo partly drawn)
II: Br.Nc1ccc([C@H]2CN3CCC[C@H]3c3ccccc32)cc1
III: Br.COc1ccc(C2CN3CCC[C@H]3c3ccccc32)cc1OC (stereo partly drawn)
[in] Write the entries in order, lowest recorded pKi first. Please write the labels in the order that was asked for.
[out] III, I, II

----------
target: Sodium-dependent dopamine transporter (Rattus norvegicus); test: Inhibition of dopamine (DA) uptake into rat brain synaptosomes
pKi: −log10 of the molar value.
Catalogue of pKi readings, one per entry.

| Compound | Result |
| --- | --- |
| CN1CCN2c3ccccc3Cc3ccccc3C2C1 (stereo unspecified) [MIANSERIN] | < 5.00 |
| c1ccc(C2CN3CCCCC3c3ccccc32)cc1 (stereo unspecified) | < 6.30 |

[in] Give pKi for Cl.c1ccc(C2CN3CCC[C@H]3c3ccccc32)cc1 (single isomer, unassigned; (+)) tested on Sodium-dependent dopamine transporter (Rattus norvegicus).
[out] 8.36

[in] Give pKi for Br.c1ccc(C2CN3CCCCCC3c3ccccc32)cc1 (stereo unspecified) tested on Sodium-dependent dopamine transporter (Rattus norvegicus).
[out] < 7.00

[in] Give pKi for Cl.FC(F)(F)c1cccc([C@@H]2CN3CCC[C@H]3c3ccccc32)c1 tested on Sodium-dependent dopamine transporter (Rattus norvegicus).
[out] < 6.00

[in] Give pKi for Clc1ccc(C2CN3CCC[C@H]3c3ccccc32)cc1Cl (stereo partly specified) tested on Sodium-dependent dopamine transporter (Rattus norvegicus).
[out] 9.00
